test: Water and atmospheric (storage) stability: total impurities by liquid chromatography after storage; assay type: physicochemical; conditions: 40° C., 60% humidity; 1 week
Structures can show the parent of a compound that is named as a salt.
# note: exactly 0.1% is not below, so it is Not fulfilled; use Fulfilled for Impurity content (%) at 40° C., 60% humidity, 1 week strictly under it

Enquiry: Please determine if CCCOc1ccc(S(=O)(=O)N2CCN(CCO)CC2)cc1-c1nc2c(CCC)cn(CC)c2c(=O)[nH]1 [SK-3530 maleate salt] is below 0.1% in terms of Impurity content (%) at 40° C., 60% humidity, 1 week.
Return: Not fulfilled

Enquiry: Please determine if CCCOc1ccc(S(=O)(=O)N2CCN(CCO)CC2)cc1-c1nc2c(CCC)cn(CC)c2c(=O)[nH]1 [SK-3530 fumarate salt] is below 0.1% in terms of Impurity content (%) at 40° C., 60% humidity, 1 week.
Return: Fulfilled

Enquiry: Please determine if CCCOc1ccc(S(=O)(=O)N2CCN(CCO)CC2)cc1-c1nc2c(CCC)cn(CC)c2c(=O)[nH]1.Cl.Cl [SK-3530 dihydrochloride salt, reference compound] is below 0.1% in terms of Impurity content (%) at 40° C., 60% humidity, 1 week.
Return: Not fulfilled

Enquiry: Please determine if CCCOc1ccc(S(=O)(=O)N2CCN(CCO)CC2)cc1-c1nc2c(CCC)cn(CC)c2c(=O)[nH]1 [SK-3530 citrate salt] is below 0.1% in terms of Impurity content (%) at 40° C., 60% humidity, 1 week.
Return: Not fulfilled
